- target-or-test-system: T1, cynomolgus CD3 on HSC-F cells (cynomolgus, UniProt Q95LI5 22-198)
- T1 construct: whole, on cells; also called Cyno HSC-F; cynomolgus HSC-F cells
- T1 sequence (Q95LI5 22-198): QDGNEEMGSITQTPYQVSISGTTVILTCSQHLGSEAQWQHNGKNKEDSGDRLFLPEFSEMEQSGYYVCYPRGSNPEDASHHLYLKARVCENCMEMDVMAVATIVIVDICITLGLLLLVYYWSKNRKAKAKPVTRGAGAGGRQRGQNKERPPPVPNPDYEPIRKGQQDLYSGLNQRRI
- assay-procedure: flow cytometry, yeast-produced IgG 100 nM on HSC-F cells, pH 7.4
Listed binders paired with reported NCB
Lab note: record just the number, no unit beside it.

Some binders with recorded NCB:
ADI-79845 (Antibody No. 11), human IgG1 (antibody, V domains shown, Tested as yeast-produced aglycosylated human IgG1) VH: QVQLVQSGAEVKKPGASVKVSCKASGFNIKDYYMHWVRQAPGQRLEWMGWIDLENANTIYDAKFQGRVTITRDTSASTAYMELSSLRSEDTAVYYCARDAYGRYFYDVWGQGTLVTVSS VL: DIVMTQSPDSLAVSLGERATINCKSSQSLLNARTGKNYLAWYQQKPGQPPKLLIYWASTRESGVPDRFSGSGSGTDFTLTISSLQAEDVAVYYCKQSYSHRTFGGGTKVEIK ... 167
ADI-79847 (Antibody No. 13), human IgG1 (antibody, V domains shown, Tested as yeast-produced aglycosylated human IgG1) VH: QVQLVQSGAEVKKPGASVKVSCKASGFNIKDYYMHWVRQAPGQRLEWMGWIDLENANTIYDAKFQGRVTITRDTSASTAYMELSSLRSEDTAVYYCARDHYHRYFYDVWGQGTLVTVSS VL: DIVMTQSPDSLAVSLGERATINCKSSQSLLNARTGHNYLAWYQQKPGQPPKLLIYWASTRESGVPDRFSGSGSGTDFTLTISSLQAEDVAVYYCKQSHSRRTFGGGTKVEIK ... 0
ADI-79843 (Antibody No. 8), human IgG1 (antibody, V domains shown, Tested as yeast-produced aglycosylated human IgG1) VH: QVQLVQSGAEVKKPGASVKVSCKASGFNIKDYYMHWVRQAPGQRLEWMGWIDLENANTIYDAKFQGRVTITRDTSASTAYMELSSLRSEDTAVYYCARDAYHRYFYDVWGQGTLVTVSS VL: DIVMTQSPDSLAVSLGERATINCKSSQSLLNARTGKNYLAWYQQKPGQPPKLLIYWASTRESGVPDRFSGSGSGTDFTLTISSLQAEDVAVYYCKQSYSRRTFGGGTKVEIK ... 174
ADI-79844 (Antibody No. 10), human IgG1 (antibody, V domains shown, Tested as yeast-produced aglycosylated human IgG1) VH: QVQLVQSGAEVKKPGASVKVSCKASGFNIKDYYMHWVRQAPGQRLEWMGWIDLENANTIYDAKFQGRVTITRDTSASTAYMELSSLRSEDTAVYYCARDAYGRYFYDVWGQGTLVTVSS VL: DIVMTQSPDSLAVSLGERATINCKSSQSLLNARTGKNYLAWYQQKPGQPPKLLIYWASTRESGVPDRFSGSGSGTDFTLTISSLQAEDVAVYYCKQSHSRRTFGGGTKVEIK ... 160

Proceed to the following item.
I would be grateful if you could share the reported NCB for ADI-79842 (Antibody No. 7), human IgG1 (antibody, V domains shown, Tested as yeast-produced aglycosylated human IgG1) VH: QVQLVQSGAEVKKPGASVKVSCKASGFNIKDYYMHWVRQAPGQRLEWMGWIDLENANTIYDAKFQGRVTITRDTSASTAYMELSSLRSEDTAVYYCARDHYGRYFYDVWGQGTLVTVSS VL: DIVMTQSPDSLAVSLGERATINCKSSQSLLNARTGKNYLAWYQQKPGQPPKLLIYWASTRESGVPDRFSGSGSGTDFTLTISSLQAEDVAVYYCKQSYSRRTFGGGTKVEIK .
172
